meta.source: BindingDB's records for patent WO2025049746

Target: Bifunctional 3'-5' exonuclease/ATP-dependent helicase WRN (Homo sapiens, UniProt Q14191)
Sequence (Q14191 whole entry): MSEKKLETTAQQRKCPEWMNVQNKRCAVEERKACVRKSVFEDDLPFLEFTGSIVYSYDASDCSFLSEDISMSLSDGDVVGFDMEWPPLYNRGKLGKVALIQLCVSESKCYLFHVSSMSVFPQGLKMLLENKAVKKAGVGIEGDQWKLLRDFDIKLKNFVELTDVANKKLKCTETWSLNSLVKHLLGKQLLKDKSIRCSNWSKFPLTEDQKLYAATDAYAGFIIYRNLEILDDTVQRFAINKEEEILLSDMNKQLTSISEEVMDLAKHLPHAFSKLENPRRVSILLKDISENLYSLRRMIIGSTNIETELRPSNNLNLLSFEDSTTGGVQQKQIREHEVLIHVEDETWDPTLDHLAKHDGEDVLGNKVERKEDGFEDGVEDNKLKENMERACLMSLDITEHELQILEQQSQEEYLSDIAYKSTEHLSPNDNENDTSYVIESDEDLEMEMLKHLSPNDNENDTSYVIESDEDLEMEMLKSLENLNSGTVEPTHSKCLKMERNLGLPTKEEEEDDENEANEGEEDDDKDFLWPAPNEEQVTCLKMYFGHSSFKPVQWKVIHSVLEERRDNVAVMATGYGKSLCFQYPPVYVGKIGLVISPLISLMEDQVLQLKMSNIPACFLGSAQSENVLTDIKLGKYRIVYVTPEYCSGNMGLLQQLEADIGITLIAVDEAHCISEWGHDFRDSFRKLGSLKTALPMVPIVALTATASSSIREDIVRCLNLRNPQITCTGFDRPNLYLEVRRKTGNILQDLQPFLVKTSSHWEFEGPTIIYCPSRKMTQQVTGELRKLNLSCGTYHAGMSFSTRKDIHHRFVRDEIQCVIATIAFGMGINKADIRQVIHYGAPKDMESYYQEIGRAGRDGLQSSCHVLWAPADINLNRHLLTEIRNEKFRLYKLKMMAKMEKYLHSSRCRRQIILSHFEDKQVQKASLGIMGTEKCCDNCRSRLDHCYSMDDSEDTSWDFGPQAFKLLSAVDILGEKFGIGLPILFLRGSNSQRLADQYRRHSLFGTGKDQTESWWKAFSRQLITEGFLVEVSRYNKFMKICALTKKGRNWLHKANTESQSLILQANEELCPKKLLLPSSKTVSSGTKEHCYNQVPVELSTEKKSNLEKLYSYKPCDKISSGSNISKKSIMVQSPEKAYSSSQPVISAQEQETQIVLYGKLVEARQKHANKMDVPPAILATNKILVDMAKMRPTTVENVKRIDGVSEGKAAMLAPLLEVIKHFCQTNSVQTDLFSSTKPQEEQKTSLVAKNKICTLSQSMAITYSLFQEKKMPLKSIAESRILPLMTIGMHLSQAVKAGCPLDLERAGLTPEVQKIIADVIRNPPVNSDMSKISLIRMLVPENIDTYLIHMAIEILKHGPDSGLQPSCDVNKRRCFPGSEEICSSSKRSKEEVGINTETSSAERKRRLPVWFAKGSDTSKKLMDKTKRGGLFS
Assay: ADP-Glo Kinase Assay
test readout: IC50 (nM)

// below: answered compounds
{"columns": ["structure notation", "IC50 / nM"],
 "data": [
  ["CCc1c(N2CCN(C(=O)c3ncnc(C)c3O)CC2)c(=O)n2nc(N(C)C)nc2n1C(F)(F)C(=O)Nc1ccc(C(F)(F)F)cc1Cl", 59],
  ["CCc1c(N2CCN(C(=O)c3ncnc(C)c3O)CC2)c(=O)n2nc(-c3ccc4nn(C)nc4c3)nc2n1CC(=O)Nc1ccc(C(F)(F)F)cc1Cl", 33],
  ["CCc1c(N2CCN(C(=O)c3ncnc(C)c3O)CC2)c(=O)n2nc(-c3ccc4conc4c3)nc2n1CC(=O)Nc1ccc(C(F)(F)F)cc1Cl", 40],
  ["CCc1c(N2CCN(C(=O)c3ncnc(C)c3O)CC2)c(=O)n2nc(-c3cnc4c(c3)CCOC4)nc2n1CC(=O)Nc1ccc(C(F)(F)F)cc1Cl", 81],
  ["CCc1c(N2CCN(C(=O)c3ncnc(C)c3O)CC2)c(=O)n2nc(-c3cc4c(cc3F)C3(CN(C)C3)OC4)nc2n1CC(=O)Nc1ccc(C(F)(F)F)cc1Cl", 43]
]}

1. CCc1c(N2CCN(C(=O)c3nc4c(cc3O)COCC4)CC2)c(=O)n2nc(-c3ccc4c(c3)COC4)nc2n1CC(=O)Nc1ccc(C(F)(F)F)cc1Cl
2. CCc1c(N2CCN(C(=O)c3ccccc3NS(=O)(=O)C3CC3)CC2)c(=O)n2nc(-c3ccc4c(c3)CCOC4)nc2n1CC(=O)Nc1ccc(C(F)(F)F)cc1Cl
3. CCc1c(N2CCN(C(=O)c3nsc(N4CCOCC4)c3O)CC2)c(=O)n2nc(-c3ccc4c(c3)COC4)nc2n1CC(=O)Nc1ccc(C(F)(F)F)cc1Cl
4. CCc1c(N2CCN(C(=O)c3ncnc(C)c3O)CC2)c(=O)n2nc(-c3ccn4ncc(C)c4c3)nc2n1CC(=O)Nc1ccc(C(F)(F)F)cc1Cl
Ascending by IC50, please: list the compounds accordingly. Arrange the labels as the request states and list them.
4, 1, 3, 2
